- PROCEDURE_DETAILS: NCI Yeast Anticancer Drug Screen. Data for the sgs1 mgt1 strain (AID 161);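 further: 0% = growth of cultures given vehicle only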
- MEASUREMENT_PARAMETERS: S. cerevisiae sgs1 mgt1 strain, at 50.0 µM, hits give high values
About 79,000 compounds went through this panel and 15% of them were active in at least one assay; those are over-represented in the sample as a whole.
Each entry below carries its recorded growth inhibition.
Reply with just the number (in %).

As a guide, the following entries are already answered.
- Cc1cc(NC(=O)c2ccccc2)c(Cl)cc1N: -11.9
- CC(=O)Nc1ccc(/C=C2\SC(=S)N(/C=C(\C(C)=O)C(N)=O)C2=O)cc1: -37.6
- C=CCOc1ccc(Cl)cc1Cl: -0.45
- Nc1ncnc(Nc2ccccc2)n1: -4.1
- O=C1NC(=O)/C(=C\c2ccncc2)N1: -0.3
- O=C1C=C[C@H](O)[C@@]2(CO)O[C@@H]12: -14.5
- O=Cc1ccc(Cl)c(Cl)c1: -18.8
- CCOC(=O)/C(C#N)=C\c1c[nH]c2ccccc12: 46.3

Value of growth inhibition reported for the molecule COc1cccc(N=CNc2cccc(OC)c2)c1 is -17.4

Value of growth inhibition reported for the molecule CCNc1ccc2ccccc2c1N=Nc1ccc(N=Nc2ccccc2)cc1 is 11.5

Value of growth inhibition reported for the molecule CCCC(OC(C)=O)c1ccc2c(c1)OCO2 (configuration not stated) is 17.3

Value of growth inhibition reported for the molecule CC1(c2ccccc2)CO1 (configuration not stated) is -7.85
